experimental target: Solute carrier family 22 member 6 (Rattus norvegicus)
Sequence (O35956 whole entry): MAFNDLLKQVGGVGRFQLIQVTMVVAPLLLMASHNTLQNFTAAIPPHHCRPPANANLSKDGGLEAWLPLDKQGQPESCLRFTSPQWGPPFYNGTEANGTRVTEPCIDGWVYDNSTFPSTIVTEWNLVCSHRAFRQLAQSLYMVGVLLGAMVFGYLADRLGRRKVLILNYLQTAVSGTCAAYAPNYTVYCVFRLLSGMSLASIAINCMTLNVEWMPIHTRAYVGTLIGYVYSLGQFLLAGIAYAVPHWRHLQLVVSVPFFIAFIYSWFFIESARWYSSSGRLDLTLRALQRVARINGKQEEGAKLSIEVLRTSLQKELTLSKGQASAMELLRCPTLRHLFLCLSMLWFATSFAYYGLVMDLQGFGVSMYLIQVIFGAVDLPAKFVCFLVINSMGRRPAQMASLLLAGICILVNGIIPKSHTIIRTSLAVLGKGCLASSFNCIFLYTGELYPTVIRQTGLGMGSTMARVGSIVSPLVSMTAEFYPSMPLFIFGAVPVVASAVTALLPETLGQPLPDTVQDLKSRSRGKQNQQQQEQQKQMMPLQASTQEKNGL
test details: TP_TRANSPORTER: inhibition of PAH uptake in Xenopus laevis oocytes
Answer each item with its documented pKi.
To interpret pKi, take it as minus log10 of a concentration measured in moles per litre.

Requested field: pKi. Item: CCCCNc1cc(C(=O)O)cc(S(N)(=O)=O)c1Oc1ccccc1 [BUMETANIDE]
5.26

Requested field: pKi. Item: NS(=O)(=O)c1cc2c(cc1Cl)NCNS2(=O)=O [HYDROCHLOROTHIAZIDE]
3.82

Requested field: pKi. Item: NS(=O)(=O)c1cc(C(=O)O)c(NCc2ccco2)cc1Cl [FUROSEMIDE]
5.02

Requested field: pKi. Item: CC(=O)Nc1nnc(S(N)(=O)=O)s1 [ACETAZOLAMIDE]
2.96
